Origin of measurements: patent US20030089472A1

Documented Kappa # (Mediator) across a set of compounds
# Test system: laccase (NS51003, Novozymes A/S, Denmark)
# assay protocol: Delignification of a softwood Kraft pulp using a laccase-mediator system (change in Kappa number, TAPPI T236 cm-85)
# Assay type: biochemical
# conditions used: pH 5.5

Worked examples follow.
# compound, Kappa # (Mediator)
data = [
    ("Oc1ccccc1 [Phenol]", 25.0),
    ("CN(C)C(=S)[S-].O.[Na+] [Sodium dimethyldithio carbonate hydrate]", 28.6),
    ("Cc1ccc2nc(-c3ccc(N=NNc4ccc(-c5nc6ccc(C)c(S(=O)(=O)[O-])c6s5)cc4)cc3)sc2c1S(=O)(=O)[O-].[Na+].[Na+] [Thiazol Yellow G]", 21.9),
]

Continue with the next compound.
Bench note: what Kappa # (Mediator) did C(=NCc1ccccc1)c1ccccc1 [N-Benzylidene-benzylamine] show?
28.3
